molecular target: PrP^Sc (pathogenic mouse prion protein, RML, in infected Balb-c mouse brain homogenate) (mouse), P04925
# True = ELISA A405nm below 0.5 A405nm (exclusive); False = ELISA A405nm at/above 0.5 A405nm

binder="GGGAGAAAAGAVVGGLGG (modifications not checked) [Peptide reagent SEQ ID NO:56]" label_class=True
binder="GGWGQGGGTHNQWNKPSKPKTN (modifications not checked) [Peptide reagent SEQ ID NO:53]" label_class=True
binder="GGTHNQWNKPSKPKTN (modifications not checked) [Peptide reagent SEQ ID NO:54]" label_class=True

Does the reported ELISA A405nm of the following binder sit strictly below 0.5 A405nm? GGGGPKRKGPK (modifications not checked) [Peptide reagent SEQ ID NO:73] False

Does the reported ELISA A405nm of the following binder sit strictly below 0.5 A405nm? GGGNKPSKPK (modifications not checked) [Peptide reagent SEQ ID NO:79] True
